Biological target: HIV-1 nucleocapsid protein (NC) (HIV-1 NL4-3, UniProt P12493)
Assay: ITC; endothermic sites, n=2.3±0.2; ITC: 10 mM Tris-HCl pH 7.0, 140 mM KCl, 10 mM NaCl, 5 mM MgCl2, 5 mM TCEP, 30 °C; NC (120-240 µM) titrated into RNA (0.6-4 µM)
Conditions: protein: recombinant; tags: none stated; hairpin, unpaired 5'-GA and AG-3' ends
readout: Kd (nM)
One number for each entry, in nM.

Read the entry GAUUUUGACUAGCGGAGGCUAGAAGGAGAG (structured_RNA) [ΨHP] and write its reported Kd.
26
